Provide the recorded z-score for the entries that follow.
- protocolDetails: growth inhibitors of anaerobic choline-fed gram-negatives, minimal medium, absorbance (AID 1963822)
- recordedConditions: Gram-negative bacterium anaerobic choline minimal medium, measured here: choline growth z-score, timepoint 1, stronger effect = lower value
The whole screen tested about 55,000 compounds, of which about 90 (0.2%) were called active. The sample holds actives, similar compounds and a random draw of the others, so the mix is not that of the screen.
Field format: numeric only.

// recorded z-score for "Cc1cc(C)nc(SCCn2c(N3CCC(C)CC3)nc3c2c(=O)[nH]c(=O)n3C)n1" : 0.24

"O=c1c(S(=O)(=O)c2ccc(F)c(Cl)c2)c[nH]c2c(F)cc(Cl)cc12" has a reported z-score of -1.06

Please fill in: z-score reported for "O=C(CN1C(=O)CSc2ccc(S(=O)(=O)N3CCCC3)cc21)Nc1cccnc1" = 0.19

The molecule identified as "Cc1ccc(-n2cc(C(=O)O)c3ccccc3c2=O)cc1" registered its z-score at 0.91

Notebook: "COc1ccc(NC(=O)c2ccc(-c3nc(-c4ccccc4)no3)cc2)cc1" , z-score read as -1.39

Record "O=C(c1nnc(-c2ccc(S(=O)(=O)N3CCCC3)cc2)o1)N1CCCC1" , field z-score: 0.12

CCC(Sc1nnc(-c2ccccc2NC(C)=O)c(=O)[nH]1)C(=O)Nc1c(C)cc(C)cc1C (stereo not given) yielded z-score of -0.51

Sure, the documented z-score for "COc1ccc(-c2noc(-c3ccc[nH]c3=O)n2)cc1OC" is 1.18

Input COc1cccc(C2Nc3ccc(Cl)cc3[C@H]3OCCC[C@@H]23)c1OC (stereo not given in full) . Output z-score: 2.03

Consider CC(C)NC(=O)N1CCCC(c2cccc(C(=O)NCc3ccc(Cl)cc3)c2)C1 (stereo not given) . Its measured z-score is 0.1

====

- protocolDetails: growth inhibitors of anaerobic choline-fed gram-negatives, minimal medium, absorbance (AID 1963822)
- recordedConditions: Gram-negative bacterium anaerobic choline minimal medium, stronger effect = lower value
Among all 55,000 compounds or so, about 90 (0.2%) were called active. This excerpt belongs to a sample that is enriched for actives.
parameter: z-score
Respond with the number and no other words.

Recorded z-score (compound "O=C(Cn1nc2n(CCc3ccccc3)c(=O)c3ccccc3n2c1=O)NCc1ccccc1Cl" ): 0.2

Consider "Brc1ccc(-c2nn[nH]n2)cc1" . Its measured z-score is -1.32

Please fill in: z-score reported for "COCC(=O)Nc1ccc(-c2nc3ccccc3s2)cc1" = -0.9

Form field z-score, entry CCCCC/C=C\CC1OC1CCCCCCCC(=O)O (stereo not given) : -3.37

Entry under test: "CCCC[C@H](C)C[C@H](O)/C=C/[C@@H]1[C@@H](CCCCCCC(=O)O)[C@@H](O)C[C@H]1O" . Its z-score was 0.5

z-score reading for COc1ccc(-c2nn(-c3ccccc3)cc2C2CC(c3ccccc3)=NN2S(C)(=O)=O)cc1 (stereo not given) : 0.58

Query Cc1ccc(N2CC(c3nc(-c4ccc(N5CCCC5)cc4)no3)CC2=O)cc1C (stereo not given) yields z-score of 0.33

The value of z-score measured for the compound "COc1ccc(NC(=O)c2cccc(-c3nc(-c4ccc(F)cc4)no3)c2)cc1OC" turned out to be -1

Field z-score (entry "O=C(NCCc1cscn1)[C@H]1CSCN1C(=O)c1ccccc1" ) reads 0.46

// z-score value for "CCCCCC(=O)CC[C@H]1[C@H](O)CC(=O)[C@@H]1C/C=C\CCCC(=O)O" : 0.71
